Listed next: entries and their corresponding pIC50.
- Assayed System: myeloperoxidase (Homo sapiens)
- Sequence (P05164 49-745): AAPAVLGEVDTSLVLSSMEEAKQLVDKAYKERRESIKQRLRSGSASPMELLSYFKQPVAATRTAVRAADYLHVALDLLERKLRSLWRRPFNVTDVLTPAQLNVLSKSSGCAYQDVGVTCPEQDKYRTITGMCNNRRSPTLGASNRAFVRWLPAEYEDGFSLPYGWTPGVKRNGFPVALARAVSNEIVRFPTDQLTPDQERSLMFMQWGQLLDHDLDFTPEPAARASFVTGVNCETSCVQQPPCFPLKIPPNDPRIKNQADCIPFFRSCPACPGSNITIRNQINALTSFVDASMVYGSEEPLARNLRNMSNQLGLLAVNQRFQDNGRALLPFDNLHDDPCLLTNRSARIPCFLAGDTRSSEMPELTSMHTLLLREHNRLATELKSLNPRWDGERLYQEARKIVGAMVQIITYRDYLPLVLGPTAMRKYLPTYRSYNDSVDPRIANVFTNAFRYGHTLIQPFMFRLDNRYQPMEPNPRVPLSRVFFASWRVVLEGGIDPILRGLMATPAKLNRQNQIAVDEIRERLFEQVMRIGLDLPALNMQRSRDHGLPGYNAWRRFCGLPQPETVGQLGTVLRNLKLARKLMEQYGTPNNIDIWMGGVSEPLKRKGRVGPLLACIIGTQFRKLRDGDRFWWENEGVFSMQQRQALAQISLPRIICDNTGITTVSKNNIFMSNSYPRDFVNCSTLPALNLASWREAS
- Test Summary: MPO Peroxidation Assay (Amplex Red Assay)
- Assay type: biochemical
- Condition Notes: potency range class, read-out: Amplex Red Assay IC50 value
pIC50: −log10 of the molar value.

[
  {
    "Compound": "Nc1cc(C(CCNC2CC[C@H](c3ccccc3)[C@@H](O)C2)c2ccccc2)c2nn[nH]c2n1 (some centres unmarked)",
    "pIC50": "6.00 to 7.00"
  },
  {
    "Compound": "N#CC1(c2ccccc2)CCN(CCCC(c2ccccc2)c2cc(N)nc3[nH]nnc23)CC1 (centres unmarked)",
    "pIC50": "6.00 to 7.00"
  },
  {
    "Compound": "Nc1cc(C(Cc2cccc(Cl)c2)c2ccccc2)c2nn[nH]c2n1 (centres unmarked)",
    "pIC50": "6.00 to 7.00"
  },
  {
    "Compound": "CC1C[C@@H](NCCC(c2ccccc2)c2cc(N)nc3[nH]nnc23)c2ccccc21 (some centres unmarked) [Example 98]",
    "pIC50": "6.00 to 7.00"
  },
  {
    "Compound": "Nc1cc(C(CCNC2CCc3ccccc3C2)c2ccccc2)c2nn[nH]c2n1 (centres unmarked)",
    "pIC50": "6.00 to 7.00"
  },
  {
    "Compound": "Nc1cc([C@H](CCCN2CCC(c3cccc(C(F)(F)F)c3)C(O)C2)c2ccccc2)c2nn[nH]c2n1 (some centres unmarked)",
    "pIC50": "6.00 to 7.00"
  },
  {
    "Compound": "Nc1cc(C(CCCN2CCCC(c3ccccc3)CC2)c2ccccc2)c2nn[nH]c2n1 (centres unmarked)",
    "pIC50": "6.00 to 7.00"
  }
]

Okay, now this compound:
Field request: pIC50 | item: COc1ccc2c(c1)CC[C@H]2NCCC(c1ccccc1)c1cc(N)nc2[nH]nnc12 (some centres unmarked) 6.00 to 7.00
